The reported measurements were obtained from ChEMBL document CHEMBL5543113.

Experiment: Inhibition of Aspergillus niger Alpha-glucosidase incubated for 10 mins by Lineweaver-Burk plot analysis
pKi: −log10 of the molar value.
Quantity measured: pKi

>>> experimental_result("CCCCCCCCCCCCCCCCCCNC(=O)CN(Cc1cn(CCCCCCN2C[C@H](O)[C@@H](O)[C@H](O)[C@H]2CO)nn1)C(=O)CN(Cc1cn(CCCCCCN2C[C@H](O)[C@@H](O)[C@H](O)[C@H]2CO)nn1)C(=O)CN(Cc1cn(CCCCCCN2C[C@H](O)[C@@H](O)[C@H](O)[C@H]2CO)nn1)C(=O)CN(Cc1cn(CCCCCCN2C[C@H](O)[C@@H](O)[C@H](O)[C@H]2CO)nn1)C(C)=O")
6.77
>>> experimental_result("CCCCCCCCCCCCCCCCCCNC(=O)CN(Cc1cn(CCCN2C[C@H](O)[C@@H](O)[C@H](O)[C@H]2CO)nn1)C(=O)CN(Cc1cn(CCCN2C[C@H](O)[C@@H](O)[C@H](O)[C@H]2CO)nn1)C(=O)CN(Cc1cn(CCCN2C[C@H](O)[C@@H](O)[C@H](O)[C@H]2CO)nn1)C(=O)CN(Cc1cn(CCCN2C[C@H](O)[C@@H](O)[C@H](O)[C@H]2CO)nn1)C(C)=O")
4.43
>>> experimental_result("OCCN1C[C@H](O)[C@@H](O)[C@H](O)[C@H]1CO")
4.69
>>> experimental_result("OC[C@H]1NC[C@H](O)[C@@H](O)[C@@H]1O")
5.44

###

Experiment: Cytotoxicity against human GES1 cells assessed as viable cells at 125 uM incubated for 44 hrs by MTT assay relative to control
Type: toxicity, cell-based
Details: read-out: Activity
Quantity measured: viability at 44 h, 125 µM

>>> experimental_result("CCCCCCCCCCCCCCCCCCNC(=O)CN(Cc1cn(CCCCCCN2C[C@H](O)[C@@H](O)[C@H](O)[C@H]2CO)nn1)C(=O)CN(Cc1cn(CCCCCCN2C[C@H](O)[C@@H](O)[C@H](O)[C@H]2CO)nn1)C(=O)CN(Cc1cn(CCCCCCN2C[C@H](O)[C@@H](O)[C@H](O)[C@H]2CO)nn1)C(=O)CN(Cc1cn(CCCCCCN2C[C@H](O)[C@@H](O)[C@H](O)[C@H]2CO)nn1)C(C)=O")
"> 80%"

###

Test: Inhibition of rice Alpha-glucosidase incubated for 10 mins by Lineweaver-Burk plot analysis
Parameters: species or system Oryza sativa
Quantity measured: Ki (nM)

>>> experimental_result("OC[C@H]1NC[C@H](O)[C@@H](O)[C@@H]1O")
17
>>> experimental_result("OCCN1C[C@H](O)[C@@H](O)[C@H](O)[C@H]1CO")
180
>>> experimental_result("CCCCCCCCCCCCCCCCCCNC(=O)CN(Cc1cn(CCCCCCN2C[C@H](O)[C@@H](O)[C@H](O)[C@H]2CO)nn1)C(=O)CN(Cc1cn(CCCCCCN2C[C@H](O)[C@@H](O)[C@H](O)[C@H]2CO)nn1)C(=O)CN(Cc1cn(CCCCCCN2C[C@H](O)[C@@H](O)[C@H](O)[C@H]2CO)nn1)C(=O)CN(Cc1cn(CCCCCCN2C[C@H](O)[C@@H](O)[C@H](O)[C@H]2CO)nn1)C(C)=O")
27
>>> experimental_result("CCCCCCCCCCCCCCCCCCNC(=O)CN(Cc1cn(CCCN2C[C@H](O)[C@@H](O)[C@H](O)[C@H]2CO)nn1)C(=O)CN(Cc1cn(CCCN2C[C@H](O)[C@@H](O)[C@H](O)[C@H]2CO)nn1)C(=O)CN(Cc1cn(CCCN2C[C@H](O)[C@@H](O)[C@H](O)[C@H]2CO)nn1)C(=O)CN(Cc1cn(CCCN2C[C@H](O)[C@@H](O)[C@H](O)[C@H]2CO)nn1)C(C)=O")
440
